The reader will find reported remaining at 24 h, 100 µM values listed item by item below.
# ASSAY_COMMENT: Stability in human plasma assessed as percentage intact peptide at 100 uM incubated for 24 hrs by LC-HRMS analysis
# Assay type: ADME, cell-free
# CONDITIONS_USED: read-out: Stability
VALUE_TYPE: remaining at 24 h, 100 µM

STRUCTURE_SMILES | RESULT
CC(C)C[C@H](NC(=O)[C@@H](NC(=O)[C@H](Cc1ccc(O)cc1)NC(=O)[C@@H]1CCCN1C(=O)[C@H](CCCNC(=N)N)NC(=O)[C@@H](N)CCCNC(=N)N)C(C)(C)C)C(=O)O.O=C(O)C(F)(F)F.O=C(O)C(F)(F)F.O=C(O)C(F)(F)F | < 1%
CN[C@@H](CCCNC(=N)N)C(=O)N[C@@H](CCCNC(=N)N)C(=O)N1CCC[C@H]1C(=O)N[C@@H](Cc1ccc(O)cc1)C(=O)N[C@H](C(=O)N[C@@H](CC(C)C)C(=O)O)C(C)(C)C.O=C(O)C(F)(F)F.O=C(O)C(F)(F)F.O=C(O)C(F)(F)F | 98.3%
CC[C@H](C)[C@H](NC(=O)[C@H](Cc1ccc(O)cc1)NC(=O)[C@@H]1CCCN1C(=O)[C@H](CCCNC(=N)N)NC(=O)[C@@H](N)CCCNC(=N)N)C(=O)N[C@@H](CC(C)C)C(=O)O | < 1%
CCC(=O)N[C@@H](CCCNC(=N)N)C(=O)N[C@@H](CCCNC(=N)N)C(=O)N1CCC[C@H]1C(=O)N[C@@H](Cc1ccc(O)cc1)C(=O)N[C@H](C(=O)N[C@@H](CC(C)C)C(=O)O)C(C)(C)C | > 99%
CC(C)C[C@H](NC(=O)[C@@H](NC(=O)[C@H](Cc1ccc(O)cc1)NC(=O)[C@@H]1CCCN1C(=O)[C@H](CCCNC(=N)N)N(C)C(=O)[C@@H](N)CCCNC(=N)N)C(C)(C)C)C(=O)O.O=C(O)C(F)(F)F.O=C(O)C(F)(F)F.O=C(O)C(F)(F)F | > 99%

Cited source: ChEMBL document CHEMBL4304768
